B1: Histone-lysine N-methyltransferase SETD2, residues 2382 to 2430; numbered along this chain, Q9BYW2 (parent)
chain: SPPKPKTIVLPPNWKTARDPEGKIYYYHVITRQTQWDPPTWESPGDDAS

variants of: B1; experiment: abundance fitness (aPCA) (normalised: wild type 0, dead -1); higher = more abundant; growth selection in yeast, the domain comes from the species named; settings: Homo sapiens
Binary call on abundance fitness: TRUE from -0.2 upward, FALSE beneath that.

Example entries begin here.
G22M FALSE
S43D TRUE
P39L FALSE

**Query** Please indicate if the recorded abundance fitness for Q35C meets or exceeds -0.2.
**Result** FALSE

**Query** Please indicate if the recorded abundance fitness for T31I meets or exceeds -0.2.
**Result** FALSE
